studyTarget: T1, TCR gamma/delta constant region (TRGDC) (human, UniProt P0CF51 1-173; B7Z8K6 1-153)
T1 chain (looked up) 1: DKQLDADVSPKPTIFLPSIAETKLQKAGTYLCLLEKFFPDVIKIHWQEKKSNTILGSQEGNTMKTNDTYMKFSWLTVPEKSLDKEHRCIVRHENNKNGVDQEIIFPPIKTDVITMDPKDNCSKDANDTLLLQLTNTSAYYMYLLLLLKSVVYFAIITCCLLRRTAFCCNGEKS
T1 chain (looked up) 2: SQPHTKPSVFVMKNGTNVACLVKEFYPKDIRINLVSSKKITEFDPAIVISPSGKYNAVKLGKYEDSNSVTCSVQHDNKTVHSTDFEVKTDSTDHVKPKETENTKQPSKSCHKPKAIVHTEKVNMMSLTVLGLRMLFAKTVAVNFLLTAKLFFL
test: cell-based or functional assay
experimentalEndpoint: TNFα; Luninex (supernatant)
Write the value as a bare number.

Inquiry: Which TNFα; Luninex (supernatant) is listed for VG9B144 (antibody, human IgG1, lambda, V domains shown) VH: QVQLVQSGAEVKKPGASVKVSCKASGYTFTGYYMHWMRQAPGQGLEWMGWINPNSGATNKEQKFQGRVTMTRDTSISTAYMELSRLRSDDTAVYYCAREDDAFDVWGQGTMVTVSS VL: SSELTQDPAVSVALGQTVRITCQGDNLRNYYATWFQQKPGQAPVLVFFGKNNRPSGIPDRFSGSSSGDTASLTITGAQAEDEADYYCNSRDSSGNHVVFGGGTKLTVLG ?
Reply text: 215

Inquiry: Look up TNFα; Luninex (supernatant): VG9B386 (antibody, human IgG1, kappa, V domains shown) VH: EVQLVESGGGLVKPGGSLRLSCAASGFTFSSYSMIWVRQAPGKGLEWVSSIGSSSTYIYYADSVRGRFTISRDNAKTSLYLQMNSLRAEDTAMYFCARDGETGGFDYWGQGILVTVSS VL: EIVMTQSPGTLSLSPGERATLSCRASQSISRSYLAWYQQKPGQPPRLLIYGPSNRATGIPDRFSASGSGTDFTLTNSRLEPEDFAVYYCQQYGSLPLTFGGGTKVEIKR
Reply text: 89

Inquiry: Item VG9B369 (antibody, human IgG1, kappa, V domains shown) VH: EVQLLESGPTLVKPTQTLTLTCTFSGFSLSTIGVGVGWIRQPPGKALEWLSLIYWNDDKRYNPSLKSRLTITKDTSKNQVVLTMTNMDPVDTATYYCAHSHDWVHAFDIWGQGTMVTVSS VL: DIVMTQSPSSLSASVGDRVTITCQASQDISHYLNWYQQKPGKAPKFLIYDASNLDTGVPSRFSGSGSGTDFTFTISSLQPEDIATYYCQQYDNFPLTFGGGTKVEIKR has what recorded TNFα; Luninex (supernatant)?
Reply text: 138
